Test: Rotating disk electrode and cyclic voltammetry on glassy carbon, 1 mM compound in 1 M sulfuric acid
Assay type: physicochemical
Conditions: Table 5; obtained from exchange current density
Procedure: Measurement of kinetic parameters and diffusion coefficients was conducted in a three-electrode cell consisting of a rotating glassy carbon disk working electrode, a platinum wire counter electrode, and a mercury/mercuric sulfate reference electrode (E° = +0.65 V). […] The solutions were de-aerated and kept under a blanket of argon gas throughout all the experiments. […]

Compound	Readout Units	Rate Constant, k°
O=S(=O)(O)c1cc(O)ccc1O [Hydroquinone sulfonic acid]	cm/s	0.000552
O=C1C=C(S(=O)(=O)O)C=C(S(=O)(=O)O)C1=O	cm/s	0.000155
O=C1c2ccccc2C(=O)c2cc(S(=O)(=O)O)ccc21	cm/s	0.000225
O=C1c2ccc(S(=O)(=O)O)cc2C(=O)c2ccc(S(=O)(=O)O)cc21	cm/s	0.000152
Oc1ccc(O)cc1 [Hydroquinone]	cm/s	0.00236

###

Assay: Rotating disk electrode and cyclic voltammetry on glassy carbon, 1 mM compound in 1 M sulfuric acid
Type: physicochemical
Settings: Table 5; 1 M sulfuric acid, Levich plot
Measured Endpoint: Diffusion Coefficient, (cm^2 s^-1)

Molecule	Value
O=C1c2ccc(S(=O)(=O)O)cc2C(=O)c2ccc(S(=O)(=O)O)cc21	3.40E-6
O=C1C=C(S(=O)(=O)O)C=C(S(=O)(=O)O)C1=O	3.80E-6
Oc1ccc(O)cc1 [Hydroquinone]	5.03E-6
O=C1c2ccccc2C(=O)c2cc(S(=O)(=O)O)ccc21	3.71E-6
O=S(=O)(O)c1cc(O)ccc1O [Hydroquinone sulfonic acid]	4.28E-6

###

Assay: Rotating disk electrode and cyclic voltammetry on glassy carbon, 1 mM compound in 1 M sulfuric acid
Assay type: physicochemical
Details: Table 7

Molecule	Readout Units	Diffusion Coefficient (cm2/sec)
O=C1c2ccc(S(=O)(=O)O)cc2C(=O)c2ccc(S(=O)(=O)O)cc21 [Anthraquinone 2,6-disulfonic acid, anthraquinone-2,6-disulfonic acid]	cm2/sec	4.04E-6
O=C1c2ccc(S(=O)(=O)O)cc2C(=O)c2cc(S(=O)(=O)O)ccc21 [2,7 Anthraquinone disulfonic acid]	cm2/sec	1.82E-6
O=C1c2ccccc2C(=O)c2cc(S(=O)(=O)O)ccc21 [Anthraquinone-2-sulfonic acid, anthraquinone-2-sulfonic acid]	cm2/sec	3.35E-6
O=S(=O)(O)c1cc(O)ccc1O [Hydroquinone sulfonic acid]	cm2/sec	4.28E-6
O=c1[nH][nH]c(=O)c2ccccc12 [Phthalyl hydrazide]	cm2/sec	1.07E-6
O=C1c2cccc(S(=O)(=O)O)c2C(=O)c2c1cccc2S(=O)(=O)O [1,8 Anthraquinone disulfonic acid]	cm2/sec	3.39E-6

###

Assay: Solubility
Details: water, aqueous solubility limit, aqueous
Measured Endpoint: solubility (mM)

Compound	Measured Endpoint	Value
O=C1c2ccccc2C(=O)c2cc(S(=O)(=O)O)ccc21	solubility	200

###

Test: Rotating disk electrode and cyclic voltammetry on glassy carbon, 1 mM compound in 1 M sulfuric acid
Format: physicochemical
Settings: Table 7

Molecule	Exchange Current density (A/cm^2)
O=C1c2ccccc2C(=O)c2cc(S(=O)(=O)O)ccc21	1.95E-5
O=C1c2ccc(S(=O)(=O)O)cc2C(=O)c2ccc(S(=O)(=O)O)cc21	1.81E-6
O=S(=O)(O)c1cc(O)ccc1O [Hydroquinone sulfonic acid]	2.59E-5
O=C1c2ccc(S(=O)(=O)O)cc2C(=O)c2cc(S(=O)(=O)O)ccc21	7.82E-7
Oc1ccc(O)cc1 [Hydroquinone]	9.17E-5
O=C1c2cccc(S(=O)(=O)O)c2C(=O)c2c1cccc2S(=O)(=O)O	1.60E-6
O=c1[nH][nH]c(=O)c2ccccc12 [Phthalyl hydrazide]	3.03E-6

###

Assay: Rotating disk electrode and cyclic voltammetry on glassy carbon, 1 mM compound in 1 M sulfuric acid
Type: physicochemical
Conditions: 1 M sulfuric acid
Quick reference for Standard Reduction Potentials: E°(formal) Measured among some compounds
Measured Endpoint: Standard Reduction Potentials: E°(formal) Measured

Compound	Value
O=S(=O)(O)c1cc(O)ccc1O [Hydroquinone sulfonic acid]	0.70
O=C1C=C(S(=O)(=O)O)C=C(S(=O)(=O)O)C1=O	0.87
O=C1c2ccc(S(=O)(=O)O)cc2C(=O)c2ccc(S(=O)(=O)O)cc21	0.19
Oc1ccc(O)cc1 [Hydroquinone]	0.68
O=C1c2ccccc2C(=O)c2cc(S(=O)(=O)O)ccc21	0.15

###

Assay: Rotating disk electrode and cyclic voltammetry on glassy carbon, 1 mM compound in 1 M sulfuric acid
Assay type: physicochemical
Conditions: Table 5; MSE E°=+0.65 V; 1 M sulfuric acid
Measured Endpoint: E½ vs. MSE, Volt (Volt)

Compound	Value
O=C1c2ccc(S(=O)(=O)O)cc2C(=O)c2ccc(S(=O)(=O)O)cc21 [Anthraquinone 2,6-disulfonic acid, anthraquinone-2,6-disulfonic acid]	-0.60
O=S(=O)(O)c1cc(O)ccc1O [Hydroquinone sulfonic acid]	0.17
Oc1ccc(O)cc1 [Hydroquinone]	0.02
O=C1c2ccccc2C(=O)c2cc(S(=O)(=O)O)ccc21 [Anthraquinone-2-sulfonic acid, anthraquinone-2-sulfonic acid]	-0.52
O=C1C=C(S(=O)(=O)O)C=C(S(=O)(=O)O)C1=O [1,2-benzoquinone-3,5-disulfonic acid, 1,2-benzoquinone-3,5-disulfonic acid]	0.45

###

Listed here: items and their measured Transfer Coefficient, an.
Assay: Rotating disk electrode and cyclic voltammetry on glassy carbon, 1 mM compound in 1 M sulfuric acid
Format: physicochemical
Conditions: Table 5; Tafel analysis

Compound	Transfer Coefficient, an
O=C1C=C(S(=O)(=O)O)C=C(S(=O)(=O)O)C1=O	0.582
O=C1c2ccc(S(=O)(=O)O)cc2C(=O)c2ccc(S(=O)(=O)O)cc21	0.426
Oc1ccc(O)cc1 [Hydroquinone]	0.508
O=S(=O)(O)c1cc(O)ccc1O [Hydroquinone sulfonic acid]	0.418
O=C1c2ccccc2C(=O)c2cc(S(=O)(=O)O)ccc21	0.677

###

Measured E½ vs. MSE, Volt, listed per entry.
Test: Rotating disk electrode and cyclic voltammetry on glassy carbon, 1 mM compound in 1 M sulfuric acid
Type: physicochemical
Details: Table 7; 1 M sulfuric acid
Protocol: Measurement of kinetic parameters and diffusion coefficients was conducted in a three-electrode cell consisting of a rotating glassy carbon disk working electrode, a platinum wire counter electrode, and a mercury/mercuric sulfate reference electrode (E° = +0.65 V). […] The solutions were de-aerated and kept under a blanket of argon gas throughout all the experiments. […]
Measured Endpoint: E½ vs. MSE, Volt (Volt)

Molecule	Readout Units	Value
O=C1c2ccccc2C(=O)c2cc(S(=O)(=O)O)ccc21	Volt	-0.52
O=S(=O)(O)c1cc(O)ccc1O [Hydroquinone sulfonic acid]	Volt	0.17
O=C1c2cccc(S(=O)(=O)O)c2C(=O)c2c1cccc2S(=O)(=O)O	Volt	-0.70
O=C1c2ccc(S(=O)(=O)O)cc2C(=O)c2cc(S(=O)(=O)O)ccc21	Volt	-0.57
O=c1[nH][nH]c(=O)c2ccccc12 [Phthalyl hydrazide]	Volt	0.5
O=C1c2ccc(S(=O)(=O)O)cc2C(=O)c2ccc(S(=O)(=O)O)cc21	Volt	-0.58
Oc1ccc(O)cc1 [Hydroquinone]	Volt	0.02

###

Assay: Solubility
Details: DMF/water, aqueous with cosolvent or surfactant or cyclodextrin, solubility in DMF/water

Compound	solubility / mM
O=C1c2ccccc2C(=O)c2cc(S(=O)(=O)O)ccc21 [Anthraquinone-2-sulfonic acid, anthraquinone-2-sulfonic acid]	700

###

Assay: Rotating disk electrode and cyclic voltammetry on glassy carbon, 1 mM compound in 1 M sulfuric acid
Type: physicochemical
Details: vs. NHE; 1 M sulfuric acid
Measured Standard Reduction Potentials: Experimental (E½ values) vs. NHE accompanies every entry in the list below.
Measured Endpoint: Standard Reduction Potentials: Experimental (E½ values) vs. NHE

Compound	Value
O=C1c2ccc(S(=O)(=O)O)cc2C(=O)c2ccc(S(=O)(=O)O)cc21	0.05
Oc1ccc(O)cc1 [Hydroquinone]	0.67
O=S(=O)(O)c1cc(O)ccc1O [Hydroquinone sulfonic acid]	0.82
O=C1C=C(S(=O)(=O)O)C=C(S(=O)(=O)O)C1=O	1.1
O=C1c2ccccc2C(=O)c2cc(S(=O)(=O)O)ccc21	0.13

###

Reported Exchange Current Density, (A cm^-2) is given for each of the following compounds.
Experiment: Rotating disk electrode and cyclic voltammetry on glassy carbon, 1 mM compound in 1 M sulfuric acid
Format: physicochemical
Details: Table 5; glassy carbon RDE, 1 M sulfuric acid

Compound	Readout Units	Exchange Current Density, (A cm^-2)
O=C1c2ccccc2C(=O)c2cc(S(=O)(=O)O)ccc21	A cm^-2	1.96E-5
O=S(=O)(O)c1cc(O)ccc1O [Hydroquinone sulfonic acid]	A cm^-2	1.10E-5
O=C1c2ccc(S(=O)(=O)O)cc2C(=O)c2ccc(S(=O)(=O)O)cc21	A cm^-2	2.97E-6
Oc1ccc(O)cc1 [Hydroquinone]	A cm^-2	5.09E-5
O=C1C=C(S(=O)(=O)O)C=C(S(=O)(=O)O)C1=O	A cm^-2	3.00E-6

###

Assay: Solubility
Conditions: Solubility, Table 7

Compound	Readout Units	Qualifying Sign	solubility
O=S(=O)(O)c1cc(O)ccc1O [Hydroquinone sulfonic acid]	mM	=	800
c1ccc2nccnc2c1 [Quinoxaline]	mM	>	7000
O=C1c2ccccc2C(=O)c2cc(S(=O)(=O)O)ccc21 [Anthraquinone-2-sulfonic acid, anthraquinone-2-sulfonic acid]	mM	=	200
Oc1ccc(O)cc1 [Hydroquinone]	mM	=	530
